- System: Muscarinic acetylcholine receptor M1 (Homo sapiens) (UniProt P11229)
- Sequence (P11229 whole entry, looked up): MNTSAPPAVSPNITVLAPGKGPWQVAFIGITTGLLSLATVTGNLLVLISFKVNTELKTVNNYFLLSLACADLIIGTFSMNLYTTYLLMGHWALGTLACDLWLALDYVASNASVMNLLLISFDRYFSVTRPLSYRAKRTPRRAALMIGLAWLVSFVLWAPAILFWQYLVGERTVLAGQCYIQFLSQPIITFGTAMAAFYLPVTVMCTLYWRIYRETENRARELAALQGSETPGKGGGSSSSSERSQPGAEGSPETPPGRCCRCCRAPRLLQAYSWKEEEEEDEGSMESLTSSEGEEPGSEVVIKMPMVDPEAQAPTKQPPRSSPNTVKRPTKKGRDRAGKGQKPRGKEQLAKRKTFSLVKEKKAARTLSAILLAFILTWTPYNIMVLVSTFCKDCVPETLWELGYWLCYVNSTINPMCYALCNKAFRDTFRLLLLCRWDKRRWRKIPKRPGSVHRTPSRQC
- Assay Info: Cholinergic receptor muscarinic 1 (CHRM1) small molecule antagonists, cell-based qHTS assay (AID 1963588); further: nearly all actives have a fitted effect of over 40% in size
- Experimental Setup: CHRM1-CHO antagonist mode, calcium flux fluorescence; series mostly up to 61.5 µM
Records with an inconclusive call do not appear. Activity calls are given as the source filed them. The call rests on the fitted dose curve.
Measurement Label: Potency

Recorded Potency, per entry:
{"columns": ["Compound", "Potency"],
 "data": [
  ["CC(C)(C)C(=O)/C=C/c1ccc(Cl)cc1", "inactive"],
  ["CCCCCCCCCCCCCCC1CO1 (centres undefined)", "inactive"],
  ["CCc1nn(C2CCCCC2)c2cc(C3(C#N)CCC(C(=O)O)CC3)ccc12 (centres undefined)", "inactive"],
  ["Cc1c(C2(c3cc(Br)c(O)c(Br)c3C)OS(=O)(=O)c3ccccc32)cc(Br)c(O)c1Br", "inactive"],
  ["C#Cc1ccc(-c2ccccc2F)cc1", "inactive"],
  ["Cc1ccc(N(CCO)CCO)cc1", "inactive"]
]}

So what's the measured Potency for this one? `Nc1ncnc(Nc2ccccc2)n1` inactive

So what's the measured Potency for this one? `NC(=O)c1ccncc1` inactive

====

- Assay Info: Nuclear factor erythroid 2-related factor 2/antioxidant responsive element (Nrf2/ARE) small molecule agonists: luciferase reporter gene qHTS assay in human keratinocytes (AID 1919969); further: nearly all actives have a fitted effect of over 35% in size
- Experimental Setup: KeratinoSens HaCaT ARE-luciferase, luminescence, 24 h; series mostly up to 92.4 µM
Records with an inconclusive call do not appear. Active and inactive are the calls of the source. Calls come from the whole dose curve.
Respond using exactly one of the listed classes: YES (active), NO (inactive)

Record request — test call for `CC(C)(C)C(=O)OCOC(=O)[C@@H]1N2C(=O)[C@@H](NC(=O)[C@H](N)c3ccccc3)[C@H]2SC1(C)C` NO

Record request — test call for `CC(=O)OCC(=O)[C@@]1(OC(C)=O)[C@@H](C)C[C@H]2[C@@H]3C[C@H](F)C4=CC(=O)C=C[C@]4(C)[C@@]3(F)[C@@H](O)C[C@@]21C` NO

Record request — test call for `CSc1cnc(C)cn1` NO

Record request — test call for `O=C(NCCN1CCOCC1)c1ccc(Cl)cc1` NO

Record request — test call for `COc1ccccc1N1CCN(CCCCNC(=O)c2ccc(-c3ccc(C(C)=O)cc3)cc2)CC1` NO

Record request — test call for `CCCCCCCCN1CCCC1=O` NO

Record request — test call for `CCCCOc1cc(C(=O)OCCN(CC)CC)ccc1N` NO

Record request — test call for `CC(C)Oc1ccccc1O` NO

Record request — test call for `C/C=C(/C(=C/C)c1ccc(O)cc1)c1ccc(O)cc1` NO

Record request — test call for `OCCN(CCO)c1ccccc1` NO

Record request — test call for `CCCCCCOc1ccc(N)cc1` YES

Record request — test call for `ICCc1ccccc1` YES

====

- System: 5-hydroxytryptamine receptor 2A (Homo sapiens) (UniProt P28223)
- Sequence (P28223 whole entry, looked up): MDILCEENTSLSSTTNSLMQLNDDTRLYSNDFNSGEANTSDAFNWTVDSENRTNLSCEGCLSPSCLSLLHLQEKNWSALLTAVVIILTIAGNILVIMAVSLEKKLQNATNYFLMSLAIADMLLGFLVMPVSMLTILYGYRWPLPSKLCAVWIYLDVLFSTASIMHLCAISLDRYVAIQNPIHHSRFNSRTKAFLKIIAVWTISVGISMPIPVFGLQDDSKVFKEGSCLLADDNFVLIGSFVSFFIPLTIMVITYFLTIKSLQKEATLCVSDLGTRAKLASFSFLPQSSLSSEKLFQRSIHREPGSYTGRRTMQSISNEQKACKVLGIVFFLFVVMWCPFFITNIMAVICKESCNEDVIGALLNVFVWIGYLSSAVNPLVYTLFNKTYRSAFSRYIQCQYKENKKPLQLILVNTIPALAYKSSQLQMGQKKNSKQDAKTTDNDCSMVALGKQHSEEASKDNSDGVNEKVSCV
- Assay Info: 5-hydroxytryptamine receptor 2A (HTR2A) small molecule antagonists, cell-based qHTS assay (AID 1963586); further: nearly all actives have a fitted effect of over 45% in size
- Experimental Setup: HTR2A-CHO cells, DOI-induced calcium flux, fluorescence; series mostly up to 61.5 µM
- Procedure: National Center for Advancing Translational Sciences [NCATS] Division of Preclinical Innovation [DPI] U.S. Environmental Protection Agency [EPA] National Institutes of Environmental Health Sciences [NIEHS] National Toxicology Program [NTP] […] HTR2A-CHO cells were dispensed at 2000 cells/3uL/well in 1536-well black-clear bottom plates using a Multidrop Dispenser. […] The fluorescence intensity in the plates was measured using FDSS 7000EX kinetic plate reader for 3 min at 1 sec intervals.
Records with an inconclusive call do not appear. Active and inactive are the calls of the source. Calls come from the whole dose curve.
Measurement Label: outcome

{"columns": ["Structure String", "outcome"],
 "data": [
  ["CCC(CC)(CC(=O)Nc1cccc(/C=C/c2nc(C3CCC3)cs2)c1)C(=O)O", "inactive"],
  ["O=C(O)c1cc(O)c2c(c1)C(=O)c1cccc(O)c1C2=O", "inactive"],
  ["CCOC(=O)[C@H](CCc1ccccc1)N[C@@H](C)C(=O)N1Cc2cc(OC)c(OC)cc2C[C@H]1C(=O)O", "inactive"],
  ["CSSc1ccoc1C", "inactive"],
  ["C=C(C)C(=O)OCCOCC", "inactive"]
]}

Kindly review the next compound as well.
So what's the measured outcome for this one? `CCCCCCCCC(C)=O` inactive
